Assay: Cytotoxicity test (MTT assay)
Type: cell-based
Conditions: mouse, RAW264.7 macrophages, RAW264.7, MTT, tested up to 20 μg/mL
Method: To assess the effects of tiamulin and Z33 on the viability of RAW264.7 macrophages, the MTT assay was performed according to previous reports. […] After discarding the MTT solution, DMSO (150 μL) was added to each well to dissolve all crystals. OD490nm was recorded using EnSight Multimode Plate Reader (PerkinElmer, […], USA).
QUANTITY NAME: IC50 at 24 h

- MOLECULE: "C=C[C@]1(C)C[C@@H](OC(=O)CSc2ccccc2NC(=O)Cn2cc(CN3CCN(c4ccc([N+](=O)[O-])cc4)CC3)nn2)[C@]2(C)[C@H](C)CC[C@]3(CCC(=O)[C@H]32)[C@@H](C)[C@@H]1O [Compound Z33]"
  IC50 at 24 h: "≥ 20 µg/mL"

Query :: Form field: reported IC50 at 24 h of C=C[C@]1(C)C[C@@H](OC(=O)CSCCN(CC)CC)[C@]2(C)[C@H](C)CC[C@]3(CCC(=O)[C@H]32)[C@@H](C)[C@@H]1O [tiamulin, reference compound]
Result :: ≥ 20 µg/mL

// data source = paper PMC9370166
